- testedOn: T1, human angiotensin AT2 receptor (human, UniProt P50052 1-363)
- T1 sequence (looked up): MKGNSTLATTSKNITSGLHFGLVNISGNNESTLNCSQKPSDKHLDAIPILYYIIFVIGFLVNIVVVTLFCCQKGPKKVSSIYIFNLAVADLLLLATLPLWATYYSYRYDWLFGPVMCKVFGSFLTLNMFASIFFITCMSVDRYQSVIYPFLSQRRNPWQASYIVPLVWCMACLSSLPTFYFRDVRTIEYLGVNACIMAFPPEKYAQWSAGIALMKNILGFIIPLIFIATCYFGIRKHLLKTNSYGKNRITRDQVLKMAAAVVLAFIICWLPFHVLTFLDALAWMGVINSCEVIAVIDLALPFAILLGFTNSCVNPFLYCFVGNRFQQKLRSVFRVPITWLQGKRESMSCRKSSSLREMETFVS
reportedMetric: % Inhibition ATII receptor (%)

>>> numericvalue("KRPPGFSPL (also called VP041) [Lys-(Des-Arg9, Leu8)-Bradykinin]")
98
>>> numericvalue("KRPAGFSPFR (also called VP050) [Lys0-Ala3] Bradykinin]")
18
>>> numericvalue("ISRPPGFSPFR (also called VP054) [Ile-Ser0]-Bradykinin]")
29
>>> numericvalue("MKRPPGFSPFR (also called VP049) [Met-Lys0] Bradykinin]")
38
>>> numericvalue("RPPGFSP (also called VP060) [Bradykinin (1-7)]")
55
>>> numericvalue("KRPPGFSPFR (also called VP048) [[Lys0] Bradykinin]")
29
>>> numericvalue("YRPPGFSPFR (also called VP051) [[Tyr0] Bradykinin]")
33
>>> numericvalue("RPPGYSPFR (also called VP053) [Tyr5] Bradykinin]")
13
